molecular target: human CSNK1A1 (Homo sapiens, UniProt P48729); assay: CSNK1A1 enzymatic mobility shift assay; type: biochemical; settings: read-out: inhibition of CSNK1A1 IC50
Sequence (P48729 whole entry): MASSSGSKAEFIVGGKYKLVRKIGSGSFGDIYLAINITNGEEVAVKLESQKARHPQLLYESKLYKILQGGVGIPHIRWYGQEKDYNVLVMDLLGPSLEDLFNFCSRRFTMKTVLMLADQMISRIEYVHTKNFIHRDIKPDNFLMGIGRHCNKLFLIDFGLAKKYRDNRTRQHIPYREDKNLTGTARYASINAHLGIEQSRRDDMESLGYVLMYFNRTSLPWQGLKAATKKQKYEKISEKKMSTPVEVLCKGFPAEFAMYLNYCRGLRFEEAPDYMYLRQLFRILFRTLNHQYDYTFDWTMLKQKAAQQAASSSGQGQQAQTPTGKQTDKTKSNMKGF
pIC50: −log10 of the molar value.
outcome measure: pIC50

>>> df
                           substance_smiles                         system_under_test  test_result
0  C[C@@H]1CN([C@@H](C)CO)C(=O)CCCn2nncc2CO[C@@H]1CN(C)C(=O)Nc1ccnc(N2CCOCC2)c1  human CSNK1A1 (Homo sapiens, UniProt P48729)         4.92
